- TESTED SYSTEM: cdk2/cyclinA (Homo sapiens)
- ASSAY TEXT: Cyclin-Dependent Kinase Assay cdk2/cyclinA
- MEASUREMENT CONTEXT: cdk2/A IC50
pIC50: −log10 of the molar value.
RESULT TYPE: pIC50

Worked set:
CCCn1c(=O)ccc2cnc(Nc3cc(Cl)c(O)c(Cl)c3)nc21 : 7.12
CCCCn1c(=O)ccc2cnc(Nc3cc(OC)c(OC)c(OC)c3)nc21 : 6.06
CCCCn1c(=O)ccc2cnc(Nc3ccc(F)cc3F)nc21 : 5.51

A = CCn1c(=O)ccc2cnc(Nc3cccc(C(F)(F)F)c3)nc21
B = CC(C)n1c(=O)ccc2cnc(Nc3ccc(OC(F)(F)F)cc3)nc21
C = CCCn1c(=O)ccc2cnc(Nc3ccc(OC)c(Cl)c3)nc21
D = CCCn1c(=O)ccc2cnc(Nc3ccc(C#N)cc3)nc21
INPUT: Write the entries in order, lowest recorded pIC50 first. Returns: the labels listed in the requested order.
OUTPUT: A, D, C, B
(A: 5.96, D: 6.26, C: 6.48, B: 7.12)

A = CCCn1c(=O)ccc2cnc(Nc3ccc(F)c([N+](=O)[O-])c3)nc21
B = CCCCn1c(=O)ccc2cnc(Nc3ccc(F)c(F)c3)nc21
C = Nc1c(Cl)cc(Nc2ncc3ccc(=O)n(C4CCCC4)c3n2)cc1Cl
INPUT: Sort the 3 molecules by pIC50; largest first, smallest last. Ranked list of labels, please, in the requested order.
OUTPUT: C, B, A
(C: 6.89, B: 6.51, A: 5.89)

1 = CCCCn1c(=O)ccc2cnc(Nc3ccc4[nH]ccc4c3)nc21
2 = CCCCn1c(=O)ccc2cnc(Nc3ccc(F)cc3)nc21
INPUT: Of 1 and 2 , which shows the smaller pIC50 value? Write the label of whichever entry you select.
OUTPUT: 1

---

- TESTED SYSTEM: cdk4/D (Homo sapiens, UniProt P11802)
- Sequence (P11802 whole entry): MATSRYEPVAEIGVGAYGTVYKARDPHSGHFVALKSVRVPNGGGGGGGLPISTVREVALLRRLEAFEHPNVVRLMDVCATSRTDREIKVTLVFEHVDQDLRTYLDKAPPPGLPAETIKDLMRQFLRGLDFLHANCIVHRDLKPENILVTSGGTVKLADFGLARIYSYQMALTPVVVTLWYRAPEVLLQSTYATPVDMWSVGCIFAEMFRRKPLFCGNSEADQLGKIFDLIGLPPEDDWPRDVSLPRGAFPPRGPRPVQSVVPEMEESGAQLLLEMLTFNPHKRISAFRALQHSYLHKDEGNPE
- Sequence (P24385 whole entry, further chain): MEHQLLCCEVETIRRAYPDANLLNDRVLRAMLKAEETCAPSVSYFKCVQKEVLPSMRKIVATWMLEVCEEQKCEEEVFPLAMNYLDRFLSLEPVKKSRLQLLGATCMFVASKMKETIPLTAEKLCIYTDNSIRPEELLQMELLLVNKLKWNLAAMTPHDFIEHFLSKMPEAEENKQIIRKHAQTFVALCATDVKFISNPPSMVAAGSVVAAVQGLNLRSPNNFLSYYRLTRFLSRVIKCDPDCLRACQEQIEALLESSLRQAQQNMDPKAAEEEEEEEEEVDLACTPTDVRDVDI
- ASSAY TEXT: Cyclin-Dependent Kinase 4 (cdk4) Assay
- Format: biochemical
- MEASUREMENT CONTEXT: read-out: cdk4/D IC50
RESULT TYPE: IC50 (nM)

CCC(CC)n1c(=O)ccc2cnc(Nc3ccc(C#N)c(NC(C)=O)c3)nc21 : 36
CCCCn1c(=O)ccc2cnc(Nc3ccc(F)c(C(F)(F)F)c3)nc21 : 1100

I = CC(=O)Nc1ccc(Nc2ncc3ccc(=O)n(C(C)C)c3n2)cc1C#N
II = CC(C)n1c(=O)ccc2cnc(Nc3ccc(O)c(CN4CCOCC4)c3)nc21
INPUT: Response body: label of entry with the larger IC50; valid values I , II . Record your answer as the label of the chosen record.
OUTPUT: I
(I: 2700 nM, II: 1800 nM)

1 = CCCn1c(=O)ccc2cnc(Nc3ccc4[nH]ccc4c3)nc21
2 = CCC(C)n1c(=O)ccc2cnc(Nc3ccc(O)c(Cl)c3)nc21 (stereo not drawn)
INPUT: Kindly identify the item with the lower IC50 figure among these two: 1 and 2 Answer with the label corresponding to your selection.
OUTPUT: 1
(1: 71.5 nM, 2: 114 nM)

a = CCC(C)n1c(=O)ccc2cnc(Nc3cc(OC)c(OC)c(OC)c3)nc21 (stereo not drawn)
b = CC(C)n1c(=O)ccc2cnc(Nc3ccc4[nH]nnc4c3)nc21
INPUT: Could you tell me which of these two has the smaller IC50 figure? First: a Second: b Write the label of whichever entry you select.
OUTPUT: b

---

- TESTED SYSTEM: cdk2/cyclinA (Homo sapiens)
- ASSAY TEXT: Cyclin-Dependent Kinase Assay cdk2/cyclinA
- MEASUREMENT CONTEXT: cdk2/A IC50
RESULT TYPE: IC50 (nM)

Example compounds with recorded IC50:
CCC(C)n1c(=O)ccc2cnc(Nc3ccc(O)cc3F)nc21 (stereo not drawn) [Example 451] : 555
CCC(CC)n1c(=O)ccc2cnc(Nc3ccc(Cl)c(C(F)(F)F)c3)nc21 [Example 486] : 920

1 = CCCn1c(=O)ccc2cnc(Nc3ccc(Br)c(C(F)(F)F)c3)nc21 [Example 314]
2 = Cc1ccc(Nc2ncc3ccc(=O)n(CC4CC4)c3n2)cc1NS(C)(=O)=O [Example 592]
3 = CCCCn1c(=O)ccc2cnc(Nc3c(F)cc(F)cc3F)nc21 [Example 366]
4 = CCC(C)n1c(=O)ccc2cnc(Nc3cccc([N+](=O)[O-])c3)nc21 (stereo not drawn) [Example 453]
5 = CC(=O)Nc1cc(Nc2ncc3ccc(=O)n(CC4CC4)c3n2)ccc1C [Example 585]
INPUT: List the 5 entries from lowest IC50 to highest IC50 value. State the ranking by listing the labels in the requested order.
OUTPUT: 4, 5, 2, 3, 1
(4: 105 nM, 5: 180 nM, 2: 310 nM, 3: 882 nM, 1: 2370 nM)

A = CCC(CC)n1c(=O)ccc2cnc(Nc3ccc(F)cc3F)nc21 [Example 483]
B = CC(=O)Nc1cc(Nc2ncc3ccc(=O)n(C4CCCC4)c3n2)ccc1C [Example 558]
INPUT: Larger number for IC50: A , or B ? Selection: enter the item's label.
OUTPUT: A
(A: 1670 nM, B: 340 nM)

---

- TESTED SYSTEM: cdc2/cyclinB (Homo sapiens, UniProt P06493)
- Sequence (P06493 whole entry): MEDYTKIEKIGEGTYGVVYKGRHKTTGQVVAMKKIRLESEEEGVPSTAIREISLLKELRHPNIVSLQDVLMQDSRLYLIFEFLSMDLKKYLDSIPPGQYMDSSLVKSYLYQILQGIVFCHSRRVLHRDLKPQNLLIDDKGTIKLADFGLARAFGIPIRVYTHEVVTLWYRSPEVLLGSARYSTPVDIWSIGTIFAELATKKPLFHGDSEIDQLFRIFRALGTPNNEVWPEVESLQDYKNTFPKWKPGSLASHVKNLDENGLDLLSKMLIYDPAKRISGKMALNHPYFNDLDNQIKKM
- Sequence (P14635 whole entry, further chain): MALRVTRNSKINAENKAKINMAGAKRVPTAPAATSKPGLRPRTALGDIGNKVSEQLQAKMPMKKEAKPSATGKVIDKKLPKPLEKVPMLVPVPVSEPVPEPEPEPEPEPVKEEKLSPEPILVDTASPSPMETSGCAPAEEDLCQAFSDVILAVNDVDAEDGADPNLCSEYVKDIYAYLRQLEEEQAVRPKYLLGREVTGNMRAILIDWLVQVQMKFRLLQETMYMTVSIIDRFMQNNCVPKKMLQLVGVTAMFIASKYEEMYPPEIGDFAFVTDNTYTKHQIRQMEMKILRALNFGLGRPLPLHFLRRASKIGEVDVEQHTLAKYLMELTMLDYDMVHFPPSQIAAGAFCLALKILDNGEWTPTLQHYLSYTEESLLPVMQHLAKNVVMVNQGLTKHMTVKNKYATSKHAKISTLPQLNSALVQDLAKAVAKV
- ASSAY TEXT: Cyclin-Dependent Kinase Assay cdc2/cyclinB
pIC50: −log10 of the molar value.
RESULT TYPE: pIC50

// worked examples, pIC50 included
CCn1c(=O)ccc2cnc(Nc3cc(OC)c(OC)c(OC)c3)nc21 : 6.07
CCCn1c(=O)ccc2cnc(Nc3ccc(O)c(C)c3)nc21 : 5.80
NS(=O)(=O)c1cccc(Nc2ncc3ccc(=O)n(C4CCCC4)c3n2)c1 : 6.52
CCCCn1c(=O)ccc2cnc(Nc3ccc(NC(=O)OC(C)(C)C)cc3)nc21 : 6.82
O=c1ccc2cnc(Nc3ccc(F)cc3)nc2n1C1CCCCC1 : 5.74
CCCCn1c(=O)ccc2cnc(Nc3ccc(C)c(C)c3)nc21 : 6.50
O=c1ccc2cnc(Nc3ccc4[nH]ccc4c3)nc2n1CC1CC1 : 6.81

P = O=c1[nH]c2ccc(Nc3ncc4ccc(=O)n(CC5CC5)c4n3)cc2[nH]1
Q = CCC(CC)n1c(=O)ccc2cnc(Nc3ccc4[nH]c5ccccc5c4c3)nc21
INPUT: Hey, between P and Q which has a smaller measured pIC50? Your answer should be the label of the entry you select.
OUTPUT: P

---

- TESTED SYSTEM: Cdk5/p25 (Homo sapiens, UniProt Q00535)
- ASSAY TEXT: Cyclin-Dependent Kinase 5 High Throughput Screening (cdk5-HTS) Assay
- Format: biochemical
- MEASUREMENT CONTEXT: high throughput screen
RESULT TYPE: IC50 (nM)

CCC(CC)n1c(=O)ccc2cnc(Nc3ccc(NC(=O)OC(C)(C)C)cc3)nc21 [Example 494] : 72
CC(=O)Nc1cc(Nc2ncc3ccc(=O)n(C(C)C)c3n2)ccc1C [Example 440] : 440
CC(C)n1c(=O)ccc2cnc(Nc3ccc(C#N)cc3)nc21 [Example 433] : 76
CCC(C)n1c(=O)ccc2cnc(Nc3cc(C(F)(F)F)ccc3F)nc21 (stereo not shown) [Example 466] : 310
CCC(C)n1c(=O)ccc2cnc(Nc3cccc(C(F)(F)F)c3)nc21 (stereo not shown) [Example 477] : 38
O=c1ccc2cnc(Nc3ccc4[nH]c5ccccc5c4c3)nc2n1CC1CC1 [Example 582] : 190

A = CCCCn1c(=O)ccc2cnc(Nc3ccc(Cl)c(C)c3)nc21 [Example 388]
B = CCC(CC)n1c(=O)ccc2cnc(Nc3ccc(F)c(Cl)c3)nc21 [Example 481]
INPUT: Hi, I'm comparing A with B and wondering which one has the bigger number for IC50. Any idea? Lab note: record the label of whichever item you select.
OUTPUT: A

a = CCn1c(=O)ccc2cnc(Nc3cc(Cl)c(O)c(Cl)c3)nc21 [Example 291]
b = CCCn1c(=O)ccc2cnc(Nc3ccc(C#N)cc3)nc21 [Example 322]
c = CCCCn1c(=O)ccc2cnc(Nc3cc(C(F)(F)F)ccc3F)nc21 [Example 372]
d = CCCn1c(=O)ccc2cnc(Nc3ccc(F)cc3F)nc21 [Example 321]
e = CCC(CC)n1c(=O)ccc2cnc(Nc3cc(C)c(O)c(C)c3)nc21 [Example 523]
INPUT: Number of compounds to sort: 5. Sort criterion: IC50, ascending. Would you mind listing the labels in the order asked for?
OUTPUT: e, b, a, d, c

A = CCCCn1c(=O)ccc2cnc(Nc3ccc(Br)c(C(F)(F)F)c3)nc21 [Example 374]
B = COc1cc(Nc2ncc3ccc(=O)n(C(C)C)c3n2)cc(C(F)(F)F)c1 [Example 425]
INPUT: Lab note: record which item had the higher IC50, A or B . Identify your selection by its label.
OUTPUT: A

I = CCCn1c(=O)ccc2cnc(Nc3cccc([N+](=O)[O-])c3)nc21 [Example 330]
II = CCCCn1c(=O)ccc2cnc(Nc3ccc(Cl)c(C(F)(F)F)c3)nc21 [Example 401]
INPUT: Smaller IC50 value? Options are I and II Answer with the label corresponding to your selection.
OUTPUT: II
